# target.desc: Human Neutrophil Elastase (HNE) (Homo sapiens)
# Sequence (P08246 30-267): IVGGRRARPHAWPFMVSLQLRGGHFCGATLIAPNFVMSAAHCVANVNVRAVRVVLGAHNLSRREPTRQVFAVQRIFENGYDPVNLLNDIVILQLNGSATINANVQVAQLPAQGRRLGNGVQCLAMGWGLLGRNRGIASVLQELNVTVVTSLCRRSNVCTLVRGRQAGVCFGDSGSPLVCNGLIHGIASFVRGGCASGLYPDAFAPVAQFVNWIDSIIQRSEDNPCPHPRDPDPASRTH
# assay.notes: Human Neutrophil Elastase Quenched-FRET Assay
# condition.parameters: geomean of measured IC50 values; HNE 0.17 nM, substrate MeOSuc-AAPV-AMC 100 μM, 90 min at room temperature; read-out: Inhibition of Human Neutrophil Elastase IC50
# Description: Human Neutrophil Elastase Quenched-FRET Assay The assay uses Human Neutrophil Elastase (HNE) purified from serum (Calbiochem art. 324681; Ref Baugh, R. J. et al., 1976, Biochemistry. 15, 836-841). […] Fluorescence was measured on a Wallac EnVision 2102 Multilabel Reader instrument at settings: Excitation 380 nm, Emission 460 nm. IC50 values were determined using Xlfit curve fitting using model 203. […]
Listing: IC50 of selected compounds
endpoint.name: IC50 (pM)

1. Cc1c(-c2ccnn2-c2ccc(C#N)cc2)nc(C(=O)NCCC[N+](C)(C)C)c(=O)n1-c1cccc(C(F)(F)F)c1 | 3480
2. Cc1c(-c2ccnn2-c2ccc(C#N)cc2)cc(C(=O)NCC[N+](C)(C)C)c(=O)n1-c1cccc(C(F)(F)F)c1 [Example 3, acetate] | 1050
3. Cc1c(-c2ccnn2-c2ccc(C#N)cc2)cc(C(=O)NCCC[N+](C)(C)C)c(=O)n1-c1cccc(C(F)(F)F)c1 [Example 7] | 570
4. Cc1c(-c2ccnn2-c2ccc(C#N)cc2)cc(C(=O)NCCC[N+]2(C)CCCC2)c(=O)n1-c1cccc(C(F)(F)F)c1 | 971
5. Cc1c(-c2ccnn2-c2ccc(C#N)cc2)cc(C(=O)NCCCC[N+](C)(C)C)c(=O)n1-c1cccc(C(F)(F)F)c1 | 934
6. Cc1c(-c2ccnn2-c2ccc(C#N)cc2)cc(C(=O)NCC[N+]2(C)CCCC2)c(=O)n1-c1cccc(C(F)(F)F)c1 [Example 1, acetate] | 949
7. Cc1c(-c2ccnn2-c2ccc(C#N)cc2)cc(C(=O)NCCC[N+](C)(C)C)c(=O)n1-c1cccc(C(F)(F)F)c1 [Example 9a, benzenesulfonate] | 1100
8. Cc1c(-c2ccnn2-c2ccc(C#N)cc2)cc(C(=O)NCCCC[N+]2(C)CCCC2)c(=O)n1-c1cccc(C(F)(F)F)c1 [Example 2, acetate] | 771
